- System: RPMI-8226 leukemia
- Protocol details: NCI-60 one-dose screen, 48 h (100 = growth as untreated, 0 = no growth, -100 = all killed)
- Condition description: 10 µM unless noted
The panel holds about 83,000 compounds, 20% with a hit somewhere; the sample as a whole holds those more often.
Readout label: growth (%)
Answer format: numeric, % implied, no suffix.

Compound	Unit annotation	growth
CN1CCN(c2ccc(NC(=O)c3nc4ccc5[nH]ncc5c4c4c3CCCC4)cc2C(F)(F)F)CC1	%	24.1
N#Cc1cccc(-c2c(-c3ccc4ccccc4c3)oc3ccccc3c2=O)c1	%	46.2
C=C(C)[C@@H]1CC[C@]2(C(=O)NCCNCCN)CC[C@]3(C)[C@H](CC[C@@H]4[C@@]5(C)C/C(=C/c6ccncc6)C(=O)C(C)(C)[C@@H]5CC[C@]43C)[C@@H]12	%	90.5
c1ccc(C2=NN[C@H](c3cn(-c4ccccc4)nc3-c3ccccc3)C2)cc1	%	86.7
CC(=O)Cc1nsc(NC(=O)c2cc(-c3cc(Cl)cc(Cl)c3)oc2C)n1	%	93.5

Identify measured growth associated with NC(=O)CCC(C(=O)O)N1C(=O)c2ccc(O)cc2C1=O (stereo unspecified)
82.1

Identify measured growth associated with "CC(C)OC(=O)c1ccc2[nH]c(O)c(C(=Nc3ccc(N(C)C(=O)CN4CCN(C)CC4)cc3)c3ccccc3)c2c1"
-28.9

Identify measured growth associated with "CCSc1nc(NC)c2cc(-c3ccc(C(F)(F)F)cc3)ccc2n1"
94.8

Identify measured growth associated with CCCCN1C(=O)/C(=c2\sc3n(c2=O)C2C(NN=3)N(CC)C(=O)N2CC)c2ccccc21 (stereo unspecified)
4.61

Identify measured growth associated with "O=C(Cn1cc(CN2C(=O)c3ccccc3S2(=O)=O)nn1)Nc1nc2ccccc2s1"
107

Identify measured growth associated with "COc1ccc2c3c([nH]c2c1)C(=O)c1nc(C)ccc1C3=O"
45.4

---

Overview of recorded growth for various compounds
- Test system: SNB-19 CNS
- Protocol details: NCI-60 one-dose screen, 48 h (100 = growth as untreated, 0 = no growth, -100 = all killed)
- Condition description: 10 µM unless noted
About 83,000 compounds went through this panel and 20% of them were active in at least one assay; those are over-represented in the sample as a whole.
Answer format: numeric, % implied, no suffix.

Compound	growth, %
CC(C)(C)c1cc(-c2nc3ccc(N4CCN(S(C)(=O)=O)CC4)cc3[nH]2)cc(C(C)(C)C)c1O	104
Fc1ccc(Nc2nc3nonc3nc2Nc2ccc(I)cc2)cc1	18.6
CN(CCOc1ccc(C#N)cc1)CCOc1ccc(C#N)cc1	44.5
Cc1ccccc1NC(=O)c1sc2nc(C)c(C(=O)/C=C/c3ccccc3)cc2c1N	2.8
CCCCN[C@H]1CC[C@@]2(C)[C@@H](CC[C@@]3(C)[C@H]2[C@H](O)C[C@H]2/C(=C(\CCC=C(C)C)C(=O)OC)[C@@H](OC(C)=O)C[C@@]23C)[C@@H]1C	104

Let's switch to this compound now.
Identify measured growth associated with "COc1cc(/C=C/C(=O)c2cccc(Nc3nc(Nc4ccccc4)nc(Nc4ccccc4)n3)c2)cc(OC)c1OC"
93.9

---

Overview of recorded growth for various compounds
- Tested on: UACC-257 melanoma
- Protocol details: NCI-60 one-dose screen, 48 h (100 = growth as untreated, 0 = no growth, -100 = all killed)
- Condition description: 10 µM unless noted
Compounds without any hit were thinned out: in the full panel of roughly 83,000, 20% have a hit.
Answer format: numeric, % implied, no suffix.

Please review the following examples before continuing.
In [3]: df
Out[3]:
                                chem_smiles  unit_annotation  result_number
0  COC(=O)c1ccc2c(c1)C(=O)c1c-2n(CCCN)c(=O)c2cc([N+](=O)[O-])ccc12                %          -96.1
1  O=S(=O)(NCCCNc1nccc(-c2c(-c3ccc(F)c(O)c3)nc3occn23)n1)c1ccccc1                %           29.1

Identify measured growth associated with "CN[C@]12CC3(C=CC(=O)C=C3)O[C@@]1(Cc1ccc(OC)cc1)N(C)C(=O)N2"
41
